pKd for assorted binders
target.or.system: T1, human CD33 (human, UniProt P20138 18-259, limits assumed)
T1 construct: Human CD33 immobilized on the BLI sensor tip or the BIAcore C1 chip; also called Siglec-3
T1 sequence (P20138 18-259 limits assumed): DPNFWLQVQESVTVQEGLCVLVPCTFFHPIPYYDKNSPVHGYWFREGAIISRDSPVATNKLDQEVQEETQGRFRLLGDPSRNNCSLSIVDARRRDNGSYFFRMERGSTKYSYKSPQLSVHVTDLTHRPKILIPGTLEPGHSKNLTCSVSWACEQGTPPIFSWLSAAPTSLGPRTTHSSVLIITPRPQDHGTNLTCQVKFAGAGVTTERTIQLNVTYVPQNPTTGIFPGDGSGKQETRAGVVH
protocol.text: SPR (BIAcore), Fab over CD33 on C1 chip
pKd: −log10 of the molar value.
measured.attribute: pKd

| binder | recorded.value |
| --- | --- |
| AB-H24 (antibody, V domains shown, Humanized variant of murine 2F5.1; also called AB-24) VH: QVQLVQSGAEVKKPGASVKISCKASGYTFTDYNLHWVRQAPGQRLEWIGFIYPSNGITGYSQKFQGKATLTVDTSASTAYMELSSLRSEDTAVYYCARSTVDYFDYWGQGTTVTVSS VL: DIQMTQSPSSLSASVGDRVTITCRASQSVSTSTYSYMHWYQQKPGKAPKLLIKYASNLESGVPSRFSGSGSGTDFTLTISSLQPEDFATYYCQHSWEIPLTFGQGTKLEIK | 8.22 |
| AB-H1 (antibody, V domains shown, Humanized variant of murine 2F5.1) VH: QVQLVQSGAEVKKPGASVKVSCKASGYTFTDYNLHWVRQAPGQGLEWMGFIYPSNGITGYAQKFQGRVTMTRDTSTSTVYMELSSLRSEDTAVYYCARSTVDYFDYWGQGTLVTVSS VL: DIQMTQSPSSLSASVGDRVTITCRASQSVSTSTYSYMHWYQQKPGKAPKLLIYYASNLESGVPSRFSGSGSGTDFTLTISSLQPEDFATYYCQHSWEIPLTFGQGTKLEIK | 8.80 |
| AB-H6 (antibody, V domains shown, Humanized variant of murine 2F5.1) VH: QVQLVQSGAEVKKPGASVKVSCKASGYTFTDYNLHWVRQAPGQGLEWMGFIYPSNGITGYAQKFQGRVTMTVDTSTSTAYMELSSLRSEDTAVYYCARSTVDYFDYWGQGTTVTVSS VL: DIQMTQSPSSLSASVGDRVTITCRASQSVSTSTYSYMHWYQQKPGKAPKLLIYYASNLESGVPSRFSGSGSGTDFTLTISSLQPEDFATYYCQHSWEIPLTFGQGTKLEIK | 8.86 |
| AB-H22 (antibody, V domains shown, Humanized variant of murine 2F5.1; also called AB-22) VH: QVQLVQSGAEVKKPGASVKISCKASGYTFTDYNLHWVRQAPGQRLEWIGFIYPSNGITGYNQKFKNKATLTVDTSASTAYMELSSLRSEDTAVYYCARSTVDYFDYWGQGTTVTVSS VL: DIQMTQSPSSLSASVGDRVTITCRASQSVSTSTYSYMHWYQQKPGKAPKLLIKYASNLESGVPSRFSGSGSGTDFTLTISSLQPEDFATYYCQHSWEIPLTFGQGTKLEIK | 8.58 |
| Chimeric Ab #2 (antibody, V domains shown, Chimeric Ab with a VH-FR3 mutation that removes the predicted N-glycosylation site) VH: EVQLQQSGPELVKPGASVKISCKASGYTFTDYNLHWVKLSHGKSLEWIGFIYPSNGITGYNQKFKNKATLTVDTSSSTAYMELRSLTSEDSAVYYCARSTVDYFDYWGQGTTLTVSS VL: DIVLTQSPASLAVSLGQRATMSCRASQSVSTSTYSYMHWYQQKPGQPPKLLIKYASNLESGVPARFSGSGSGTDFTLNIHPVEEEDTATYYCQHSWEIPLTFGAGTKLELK | 8.54 |
